Test system: 633275-114-R-J1-PDC complex spheroids, viability
Experiment: Anticancer human tumor 633275-114-R-J1-PDC patient-derived endometrial adenocarcinoma cell line growth inhibition [GQUAD]
Details: second compound 1 µM; first compound 10 µM; active compounds read low
Hi! Could you tag entries with viability, T/C below 20% as Fulfilled, and those at or above as Not fulfilled? Much appreciated.

| Compound | Class name |
| --- | --- |
| CC(C)(O)C1CCC(Nc2ccc3ncc(-c4cccc(C(F)(F)F)c4)n3n2)CC1 (stereo not given) + CN(C)c1ccc(Nc2c3ccc(NC(=O)CCN4CCCC4)cc3nc3cc(NC(=O)CCN4CCCC4)ccc23)cc1 | Not fulfilled |
| CC(=O)O[C@H]1C(=O)[C@@]2(C)[C@H]([C@H](OC(=O)c3ccccc3)[C@]3(O)C[C@H](OC(=O)[C@H](O)[C@@H](NC(=O)c4ccccc4)c4ccccc4)C(C)=C1C3(C)C)[C@]1(OC(C)=O)CO[C@@H]1C[C@@H]2O + CN(C)c1ccc(Nc2c3ccc(NC(=O)CCN4CCCC4)cc3nc3cc(NC(=O)CCN4CCCC4)ccc23)cc1 | Not fulfilled |
| O=C(NO)c1cnc(N2CCN(S(=O)(=O)c3ccc4ccccc4c3)CC2)nc1 + Cc1[nH]c2ccc(F)cc2c1-c1nc2c3cccnc3c3ncccc3c2[nH]1 | Fulfilled |
| C#Cc1c(F)ccc2cc(O)cc(-c3ncc4c(N5CC6CCC(C5)N6)nc(OCC56CCCN5CC(F)C6)nc4c3F)c12 (stereo not given) + Cc1[nH]c2ccc(F)cc2c1-c1nc2c3cccnc3c3ncccc3c2[nH]1 | Not fulfilled |

====

System: 633275-114-R-J1-PDC complex spheroids, viability
Test: Anticancer human tumor 633275-114-R-J1-PDC cell line growth inhibition [GQUAD];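 also: spheroids exposed to the agents for seven days; percent of DMSO vehicle control viability which is 100%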
Settings: second compound 10 µM; first compound 0.1 µM; active compounds read low
Measured quantity: viability, T/C

| Compound | Measured quantity | Readout value |
| --- | --- | --- |
| CC1COCCN1c1cc(-c2ccnn2C)c2ccnc(-c3ccn[nH]3)c2n1 (stereo not given) + CN(C)c1ccc(Nc2c3ccc(NC(=O)CCN4CCCC4)cc3nc3cc(NC(=O)CCN4CCCC4)ccc23)cc1 | viability, T/C | 23.5% |
| C=CC(=O)N1CCN(c2nc(=O)n(-c3c(C)ccnc3C(C)C)c3nc(-c4c(O)cccc4F)c(F)cc23)C(C)C1 (stereo not given) + CN(C)c1ccc(Nc2c3ccc(NC(=O)CCN4CCCC4)cc3nc3cc(NC(=O)CCN4CCCC4)ccc23)cc1 | viability, T/C | 34.3% |
| CCCS(=O)(=O)Nc1ccc(F)c(C(=O)c2c[nH]c3ncc(-c4ccc(Cl)cc4)cc23)c1F + Cc1cnc(CNC(=O)c2c(=O)c3ccc(N4CCCN(C)CC4)nc3n3c2sc2ccccc23)cn1 | viability, T/C | 33.1% |
| Cc1cccc(N(C)C(=O)C2C(O)CCN2c2nc(C)cc(C(F)(F)F)c2C#N)c1 (stereo not given) + Cc1[nH]c2ccc(F)cc2c1-c1nc2c3cccnc3c3ncccc3c2[nH]1 | viability, T/C | 77.7% |
| C#Cc1c(F)ccc2cc(O)cc(-c3ncc4c(N5CC6CCC(C5)N6)nc(OCC56CCCN5CC(F)C6)nc4c3F)c12 (stereo not given) + Cc1cnc(CNC(=O)c2c(=O)c3ccc(N4CCCN(C)CC4)nc3n3c2sc2ccccc23)cn1 | viability, T/C | 32.9% |
